This collection of values is drawn from patent US8952024B2.

System: velvetleaf (Abutilon theophrasti)
Experiment notes: Test B pre-/postemergence plant response
Format: in vivo
Condition summary: Postemergence, 125 g ai/ha; scale 0 to 100 (0 no effect, 100 complete control)
Listed compounds paired with reported Plant response rating, Velvetleaf
Lab note: jot the number down without any unit.

// worked examples, Plant response rating, Velvetleaf included
1) CCCn1c(-c2cccc(F)c2)ncc(C(=O)C2=C(O)CCCC2=O)c1=O [Compound 127]: 100
2) COCCn1c(-c2cccs2)ncc(C(=O)C2=C(O)CCCC2=O)c1=O [Compound 108]: 100
3) O=C1CCCC(O)=C1C(=O)c1cnc(-c2ccsc2)n(CC2CCCO2)c1=O (stereo not shown) [Compound 98]: 95

Shifting focus to the compound that follows.
Query: Quote Plant response rating, Velvetleaf with test system velvetleaf (Abutilon theophrasti) for O=C1CCCC(O)=C1C(=O)c1cnc(-c2ccsc2)n(C2CCOCC2)c1=O [Compound 186]
Result: 100

---

Test system: goosegrass (Eleusine indica)
Experiment notes: Test B pre-/postemergence plant response
Format: in vivo
Condition summary: 250 g ai/ha, Preemergence, 0 to 100 scale
List of Plant response rating, Goosegrass values.
Give the figure by itself; no unit, no explanation.

Worked examples, 3 compounds total:
1. CCCCc1ncc(C(=O)C2=C(O)CCCC2=O)c(=O)n1-c1ccccc1C [Compound 62]: 98
2. O=C1CCCC([O-])=C1C(=O)c1cnc(-c2ccccc2)n(-c2ccccc2)c1=O.[K+] [Compound 14]: 100
3. Cc1ccc(C)c(-n2c(-c3ccccc3)ncc(C(=O)C3=C(O)CCCC3=O)c2=O)c1 [Compound 29]: 100

Query: Report Plant response rating, Goosegrass for CCn1c(-c2ccccc2)ncc(C(=O)C2=C(O)CCCC2=O)c1=O [Compound 49]
Result: 100

Query: Read the entry O=C1CCCC(O)=C1C(=O)c1cnc(-c2cccs2)n(-c2ccccc2)c1=O [Compound 66] and write its reported Plant response rating, Goosegrass.
Result: 98

---

Tested on: corn (Zea mays)
Experiment notes: Test A pre-/postemergence plant response
Format: in vivo
Condition summary: Postemergence, 500 g ai/ha; visual injury, 0 to 100 scale (0 no effect, 100 complete control), approx. ten days
Measured Corn plant response rating of individual entries
Respond using a number only.

Solved entries (count: 5):
1. CCOCCn1c(-c2cc(F)cc(F)c2)ncc(C(=O)C2=C(O)CCCC2=O)c1=O [Compound 182]: 20
2. CCCn1c(-c2ccco2)ncc(C(=O)C2=C(O)C3CCC(C3)C2=O)c1=O (centres unmarked) [Compound 230]: 20
3. Cc1ccc(-n2c(-c3cccc(C)c3)ncc(C(=O)C3=C(O)CCCC3=O)c2=O)cc1 [Compound 211]: 20
4. Cc1cc(F)ccc1-n1c(-c2cccc(Cl)c2)ncc(C(=O)C2=C(O)CCCC2=O)c1=O [Compound 167]: 30
5. O=C(C1=C(O)C2CCC(C2)C1=O)c1cnc(-c2cc(F)cc(F)c2)n(-c2ccccc2)c1=O (centres unmarked) [Compound 246]: 90

Could you now look at the following compound, please?
Query: Determine from records and report Corn plant response rating for COc1ccc(-n2c(-c3cccc(C)c3)ncc(C(=O)C3=C(O)CCCC3=O)c2=O)cc1 [Compound 212]
Result: 0

---

Test system: mallow (common mallow, Malva sylvestris)
Experiment notes: Test D pre-/postemergence plant response
Format: in vivo
Condition summary: Preemergence, 31 g ai/ha; scale 0 to 100 (0 no effect, 100 complete control)
Parameter: Plant response rating, Mallow
Quick one: just the number, no unit, thanks!

Query: Give reported Plant response rating, Mallow for O=C1CCCC(O)=C1C(=O)c1cnc(-c2cccnc2)n(-c2ccccc2)c1=O (mallow (common mallow, Malva sylvestris))
Result: 5

---

Test system: green foxtail (Setaria viridis)
Experiment notes: Test D pre-/postemergence plant response
Format: in vivo
Condition summary: Postemergence, 125 g ai/ha; scale 0 to 100 (0 no effect, 100 complete control)
Parameter: Plant response rating, Foxtail, Green
Output spec: single numeric token, no unit.

Record excerpt, results attached:
1. O=C1CCCC(O)=C1C(=O)c1cnc(-c2cccnc2)n(-c2ccccc2)c1=O [Compound 113]: 90
2. O=C1CCCC(O)=C1C(=O)c1cnc(-c2cccs2)n(-c2ccccc2)c1=O [Compound 66]: 80
3. O=C1CCCC(O)=C1C(=O)c1cnc(-c2ccccc2)n(C2CCCCC2)c1=O [Compound 128]: 70

Query: Look up and report measured Plant response rating, Foxtail, Green for this entry: CCCCn1c(-c2ccccc2)ncc(C(=O)C2=C(O)C3CCC(C3)C2=O)c1=O (centres unmarked) [Compound 240]
Result: 98

Query: Provide Plant response rating, Foxtail, Green value for the following compound: CCCn1c(-c2ccccc2)ncc(C(=O)C2=C(O)C3CCC(C3)C2=O)c1=O (centres unmarked) [Compound 226]
Result: 80

---

Test system: barnyardgrass (Echinochloa crus-galli)
Experiment notes: Test A pre-/postemergence plant response
Assay type: in vivo
Condition summary: Preemergence, 500 g ai/ha; 0 to 100 scale, 0 = no effect, 100 = complete control
Label key: Condition met means Plant response rating, Barnyardgrass under 60; Condition not met means Plant response rating, Barnyardgrass of 60 or more.

Would you please look over these solved cases?
1. CCCn1c(-c2cc(F)cc(F)c2)ncc(C(=O)C2=C(O)CC(C)(C)CC2=O)c1=O: Condition not met
2. CCc1cccc(-n2c(-c3ccccc3)ncc(C(=O)C3=C(O)CCCC3=O)c2=O)c1: Condition not met
3. Cc1ccccc1-n1c(-c2cccc(Br)c2)ncc(C(=O)C2=C(O)CCCC2=O)c1=O: Condition met
4. O=C(C1=C(O)C2CCC(C2)C1=O)c1cnc(-c2ccccc2)n(C2CCOCC2)c1=O (centres unmarked): Condition met

Query: hey, is Plant response rating, Barnyardgrass for O=C1CCCC(O)=C1C(=O)c1cnc(-c2cc(F)cc(F)c2)n(CC2CCCO2)c1=O (centres unmarked) lower than 60 or not?
Result: Condition not met

Query: Determine whether this compound shows Plant response rating, Barnyardgrass lower than 60 (ties excluded): Cc1c(F)cccc1-n1c(-c2ccccc2)ncc(C(=O)C2=C(O)C3CCC(C3)C2=O)c1=O (centres unmarked)
Result: Condition not met

Query: Answer whether the compound CCc1ccc(-n2c(-c3cccc(C)c3)ncc(C(=O)C3=C(O)CCCC3=O)c2=O)cc1 has Plant response rating, Barnyardgrass strictly less than 60
Result: Condition met

Query: Consider the compound CCCn1c(-c2ccc3ccccc3c2)ncc(C(=O)C2=C(O)C3CCC(C3)C2=O)c1=O (centres unmarked) . Is its Plant response rating, Barnyardgrass strictly less than 60?
Result: Condition met

Query: hey, is Plant response rating, Barnyardgrass for Cc1ccc(-n2c(-c3cc(F)cc(F)c3)ncc(C(=O)C3=C(O)CCCC3=O)c2=O)cc1 lower than 60 or not?
Result: Condition not met

Query: Record O=C(C1=C(O)C2CCC(C2)C1=O)c1cnc(-c2ccccc2)n(C2CCCCCCCCCCC2)c1=O (centres unmarked) : is its Plant response rating, Barnyardgrass strictly below 60?
Result: Condition met

---

System: windgrass (Apera spica-venti)
Experiment notes: Test B postemergence plant response
Type: in vivo
Condition summary: Postemergence, 31 g ai/ha; 0 to 100 scale (0 no effect, 100 complete control)
Excerpt: […] Treated plants and controls were maintained in a greenhouse for 13 to 15 days, after which time all treated plants were visually evaluated and compared to controls. […]
Parameter: Plant response rating, Windgrass
In your answer, state the number alone without any accompanying words.

Use these answered entries as a reference point.
1) CCCn1c(-c2ccccc2)ncc(C(=O)C2=C(O)C3CCC(C3)C2=O)c1=O (centres unmarked): 10
2) O=C1CCCC(O)=C1C(=O)c1cnc(-c2ccsc2)n(C2CCOCC2)c1=O: 10
3) CCn1c(-c2cc(F)cc(F)c2)ncc(C(=O)C2=C(O)CCCC2=O)c1=O: 5

Query: Give me measured Plant response rating, Windgrass, please, for this compound: CCc1cccc(-n2c(-c3ccccc3)ncc(C(=O)C3=C(O)CCCC3=O)c2=O)c1
Result: 5

Query: Output measured Plant response rating, Windgrass for this item: O=C1CCCC(O)=C1C(=O)c1cnc(-c2ccccc2)n(C2CCCCCC2)c1=O
Result: 60

---

Tested on: kochia (Kochia scoparia)
Experiment notes: Test D pre-/postemergence plant response
Type: in vivo
Condition summary: Postemergence, 125 g ai/ha; scale 0 to 100 (0 no effect, 100 complete control)
Source text: […] Treated plants and controls were maintained in a greenhouse for 14 to 21 days, after which time all species were visually evaluated and compared to controls. […]
Listed here: items and their measured Plant response rating, Kochia.

1) Cc1ccc(F)c(-n2c(-c3ccccc3)ncc(C(=O)C3=C(O)CCCC3=O)c2=O)c1: 20
2) CCCn1c(-c2ccccc2)ncc(C(=O)C2=C(O)C3CCC(C3)C2=O)c1=O (stereo not shown): 70
3) O=C1CCCC(O)=C1C(=O)c1cnc(-c2ccccc2)n(C2CCCCC2)c1=O: 40

Query: State, in one line, measured Plant response rating, Kochia of O=C1CCCC(O)=C1C(=O)c1cnc(C2CC2)n(-c2ccccc2)c1=O
Result: 60
